# TESTED ON: (recombinant) catalytic domain of human Bub1 (amino acids 704-1085) (Homo sapiens (Human), UniProt O43683)
# Sequence (O43683 704-1085): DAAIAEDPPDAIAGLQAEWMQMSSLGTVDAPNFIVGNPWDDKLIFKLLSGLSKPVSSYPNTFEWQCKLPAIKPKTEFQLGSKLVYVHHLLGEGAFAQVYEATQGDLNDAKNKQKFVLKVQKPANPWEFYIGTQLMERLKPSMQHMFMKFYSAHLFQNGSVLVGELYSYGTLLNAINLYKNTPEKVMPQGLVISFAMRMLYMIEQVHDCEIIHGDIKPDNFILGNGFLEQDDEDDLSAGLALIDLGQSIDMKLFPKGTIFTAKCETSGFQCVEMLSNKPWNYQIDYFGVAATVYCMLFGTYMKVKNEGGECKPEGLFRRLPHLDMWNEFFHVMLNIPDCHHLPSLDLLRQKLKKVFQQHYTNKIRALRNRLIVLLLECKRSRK
# EXPERIMENT NOTES: Bub1 kinase assay (TR-FRET)
# ASSAY CONDITIONS: ATP 10 μM final, peptide substrate 1 μM final, 60 min at 22° C., read-out: Biological Assay: Bub1 kinase assay median IC50
# Method: Examples were tested in selected biological assays one or more times. When tested more than once, data are reported as either average values or as median values, wherein • the average value, also referred to as the arithmetic mean value, represents the sum of the values obtained divided by the number of times tested, and • the median value represents the middle number of the group of values when ranked in ascending or descending order. […]
EXPERIMENTAL ENDPOINT: IC50 (µM)

P: Cc1cc(OCC(=O)Nc2cc(-c3[nH]c4c(c3Nc3ccccc3)C(=O)CCC4)ccn2)no1
Q: O=C(NCC(F)F)Nc1cc(-c2[nH]c3c(c2Nc2ccccc2)C(=O)CCC3)ccn1
R: CN(C)c1ccc(Nc2c(-c3ccncc3)[nH]c3c2C(=O)CC(C)(C)C3)cc1
S: CC1(C)CC(=O)c2c([nH]c(-c3ccncc3)c2Nc2cccc(Cl)c2F)C1
Rank the items above by IC50, largest value first. I would appreciate it if you listed the labels in the requested order.
R, S, Q, P

====

# TESTED ON: (recombinant) catalytic domain of human Bub1 (amino acids 704-1085) (Homo sapiens (Human))
# EXPERIMENT NOTES: Bub1 kinase assay (TR-FRET)
# ASSAY CONDITIONS: ATP 10 μM final, peptide substrate 1 μM final, 60 min at 22° C., read-out: Biological Assay: Bub1 kinase assay median IC50
EXPERIMENTAL ENDPOINT: IC50 (nM)

| COMPOUND | MEASURED NUMBER |
| --- | --- |
| CC1(C)CC(=O)c2c([nH]c(-c3ccncc3)c2Nc2cccc(C(F)(F)F)c2)C1 [Example 51] | 136 |
| CC1(C)CC(=O)c2c([nH]c(-c3ccncc3)c2Nc2ccc(F)cc2CO)C1 [Example 485] | 5.84 |
| O=C1CC2(CC2)Cc2[nH]c(-c3ccncc3F)c(Nc3ccccc3)c21 [Example 208] | 6.39 |
| O=C(Nc1cc(-c2[nH]c3c(c2Nc2ccccc2)C(=O)CCC3)ccn1)c1cscn1 [Example 271] | 7.64 |
| CCOCC(=O)Nc1cc(-c2[nH]c3c(c2Nc2ccccc2)C(=O)CCC3)ccn1 [Example 334] | 9.36 |

1: CC(=O)Nc1cccc(Nc2c(-c3ccncc3)[nH]c3c2C(=O)CC(C)(C)C3)c1 [Example 109]
2: CN1CCCC1C(=O)Nc1cc(-c2[nH]c3c(c2Nc2ccccc2)C(=O)CCC3)ccn1 (centres unmarked) [Example 309]
Lab note: record which item had the higher IC50, 1 or 2 . # respond with the chosen item's label
1
(1: 4560 nM, 2: 238 nM)

====

# TESTED ON: (recombinant) catalytic domain of human Bub1 (amino acids 704-1085) (Homo sapiens (Human))
# EXPERIMENT NOTES: Bub1 kinase assay (TR-FRET)
# ASSAY CONDITIONS: ATP 10 μM final, peptide substrate 1 μM final, 60 min at 22° C., read-out: Biological Assay: Bub1 kinase assay median IC50
pIC50: −log10 of the molar value.
EXPERIMENTAL ENDPOINT: pIC50

| SMILES STRUCTURE | pIC50 |
| --- | --- |
| CC(C)(F)C(=O)Nc1cc(-c2[nH]c3c(c2Nc2ccccc2)C(=O)CCC3)ccn1 | 6.74 |

I: O=C(Cc1cc[nH]c1)Nc1cc(-c2[nH]c3c(c2Nc2ccccc2)C(=O)CCC3)ccn1
II: CC1(C)CC(=O)c2c([nH]c(-c3ccnc(NCC4CC4)c3)c2Nc2ccccc2)C1
III: CC(C)(C#N)C(=O)Nc1cc(-c2[nH]c3c(c2Nc2ccccc2)C(=O)CCC3)ccn1
Let's sort these by pIC50, smallest first. Go ahead? Please list each label once, in the requested order.
II, III, I
(II: 6.66, III: 7.07, I: 7.67)

====

# TESTED ON: (recombinant) catalytic domain of human Bub1 (amino acids 704-1085) (Homo sapiens (Human), UniProt O43683)
# EXPERIMENT NOTES: Bub1 kinase assay (TR-FRET)
# ASSAY CONDITIONS: ATP 10 μM final, peptide substrate 1 μM final, 60 min at 22° C., read-out: Biological Assay: Bub1 kinase assay median IC50
pIC50: −log10 of the molar value.
EXPERIMENTAL ENDPOINT: pIC50

Use the examples below as a reference point.
| COMPOUND | MEASURED NUMBER |
| --- | --- |
| O=C1CCCc2[nH]c(-c3ccnc(Br)c3)c(Nc3ccccc3)c21 [Example 152] | 6.62 |
| O=C(COCc1ccccc1)Nc1cc(-c2[nH]c3c(c2Nc2ccccc2)C(=O)CCC3)ccn1 [Example 340] | 8.14 |
| CC1(C)CC(=O)c2c([nH]c(-c3ccncc3)c2Nc2ccc(S(N)(=O)=O)cc2)C1 [Example 432] | 5.63 |

I: O=C1CC(C(F)(F)F)Cc2[nH]c(-c3ccncc3)c(Nc3cccc(F)c3)c21 (centres unmarked) [Example 43]
II: O=C1CCCc2[nH]c(-c3ccncc3OCCO)c(Nc3ccccc3)c21 [Example 459]
III: CC1(C)CC(=O)c2c([nH]c(-c3ccnc(NC4CCC4)c3)c2Nc2ccccc2)C1 [Example 359]
IV: Cc1cc(-c2[nH]c3c(c2Nc2ccccc2)C(=O)CC(C)(C)C3)ccn1 [Example 149]
V: CC1(C)CC(=O)c2c([nH]c(-c3ccnc(N4CCOCC4)c3)c2Nc2ccccc2)C1 [Example 127]
Sort the 5 compounds by pIC50; largest first, smallest last. Answer format: list of labels, ordered as asked.
I, II, IV, III, V
(I: 8.02, II: 7.23, IV: 7.03, III: 6.68, V: 5.11)

I: COc1cc(C(=O)Nc2cc(-c3[nH]c4c(c3Nc3ccccc3)C(=O)CC(C)(C)C4)ccn2)ccc1F [Example 474]
II: CCC(=O)Nc1cccc(Nc2c(-c3ccncc3)[nH]c3c2C(=O)CC(C)(C)C3)c1 [Example 98]
Of I versus II , which is the one with smaller reported pIC50? Write the label of whichever entry you select.
II
(II: 5.81, I: 8.06)

1: CC1(C)CC(=O)c2c([nH]c(-c3ccnc(NC(=O)[C@H]4C[C@H]4F)c3)c2Nc2ccccc2)C1 [Example 259]
2: CSCC(=O)Nc1cc(-c2[nH]c3c(c2Nc2ccccc2)C(=O)CCC3)ccn1 [Example 244]
3: CC1(C)CC(=O)c2c([nH]c(-c3ccnc(N4CCCC4)c3)c2Nc2ccccc2)C1 [Example 126]
Arrange the 3 compounds by rising pIC50, starting with the smallest. Sort the labels as requested; that list is your answer.
3, 2, 1
(3: 4.84, 2: 7.51, 1: 8.00)

====

# TESTED ON: (recombinant) catalytic domain of human Bub1 (amino acids 704-1085) (Homo sapiens (Human), UniProt O43683)
# EXPERIMENT NOTES: Bub1 kinase assay (TR-FRET)
# ASSAY CONDITIONS: ATP 10 μM final, peptide substrate 1 μM final, 60 min at 22° C., read-out: Biological Assay: Bub1 kinase assay median IC50
EXPERIMENTAL ENDPOINT: IC50 (nM)

// solved cases for IC50 follow
| COMPOUND | UNIT ABBREV | IC50 |
| --- | --- | --- |
| CC1(C)CC(=O)c2c([nH]c(-c3ccncc3)c2Nc2cccc(F)c2CO)C1 | nM | 3.45 |
| Cc1noc(COCC(=O)Nc2cc(-c3[nH]c4c(c3Nc3ccccc3)C(=O)CCC4)ccn2)n1 | nM | 8.19 |
| CC(C)C1CC(=O)c2c([nH]c(-c3ccnc(N)c3)c2Nc2ccc(F)c(F)c2)C1 (centres unmarked) | nM | 28.5 |

A: CC1(C)CC(=O)c2c([nH]c(-c3ccnc(N)n3)c2Nc2ccccc2)C1
B: CC1(C)CC(=O)c2c([nH]c(-c3ccncc3)c2Nc2cc(Cl)ccc2F)C1
C: O=C(Nc1cc(-c2[nH]c3c(c2Nc2ccccc2)C(=O)CCC3)ccn1)c1cnco1
D: Cn1c2c(c(Nc3ccccc3)c1-c1ccncc1)C(=O)CCC2
E: O=C1CCCc2[nH]c(-c3ccncc3OCC3CC3)c(Nc3ccccc3)c21
Given 5 compounds, produce a descending ranking by IC50. Kindly provide the labels arranged according to the requested ordering.
B, D, A, E, C

====

# TESTED ON: (recombinant) catalytic domain of human Bub1 (amino acids 704-1085) (Homo sapiens (Human), UniProt O43683)
# EXPERIMENT NOTES: Bub1 kinase assay (TR-FRET)
# Assay type: biochemical
# ASSAY CONDITIONS: ATP 10 μM final, peptide substrate 1 μM final, 60 min at 22° C., read-out: Biological Assay: Bub1 kinase assay median IC50
EXPERIMENTAL ENDPOINT: IC50 (nM)

Take a look at these entries with their results.
| COMPOUND | UNIT ABBREV | IC50 |
| --- | --- | --- |
| COc1ccccc1Nc1c(-c2ccncc2)[nH]c2c1C(=O)CC(C)(C)C2 [Example 124] | nM | 154 |
| CSc1cnccc1-c1[nH]c2c(c1Nc1ccccc1)C(=O)CC(C)(C)C2 [Example 201] | nM | 47.4 |
| O=C(Nc1cc(-c2[nH]c3c(c2Nc2ccccc2)C(=O)CCC3)ccn1)c1ccc(F)c(F)c1 [Example 451] | nM | 8.82 |
| O=C(Nc1ccccn1)Nc1cc(-c2[nH]c3c(c2Nc2ccccc2)C(=O)CCC3)ccn1 [Example 386] | nM | 20.3 |
| COc1ccc(Cn2cc(C(=O)Nc3cc(-c4[nH]c5c(c4Nc4ccccc4)C(=O)CCC5)ccn3)cn2)cc1 [Example 450] | nM | 6.24 |
| O=C1CC(C(F)(F)F)Cc2[nH]c(-c3ccncc3)c(Nc3ccccc3)c21 (single isomer, unassigned) [Example 441] | nM | 5.72 |
| CC1(C)CC(=O)c2c([nH]c(-c3ccncc3)c2Nc2ccc3cn[nH]c3c2)C1 [Example 74] | nM | 82.3 |
| O=C(Nc1cc(-c2[nH]c3c(c2Nc2ccccc2)C(=O)CCC3)ccn1)c1ccn[nH]1 [Example 275] | nM | 12.7 |

P: O=C1CCCc2[nH]c(-c3ccnc(NCc4cncs4)c3)c(Nc3ccccc3)c21 [Example 500]
Q: O=C1CC(C(F)(F)F)Cc2[nH]c(-c3ccncc3)c(Nc3ccccc3)c21 (single isomer, unassigned) [Example 440]
Identify the item whose IC50 is the smaller number: P or Q // respond with label for picked entry
Q
(Q: 12.9 nM, P: 356 nM)

I: CC1(C)CC(=O)c2c([nH]c(-c3ccncc3)c2Nc2ccc3ccccc3c2)C1 [Example 158]
II: CC1(C)CC(=O)c2c([nH]c(-c3ccncc3)c2Nc2ccc([N+](=O)[O-])cc2)C1 [Example 90]
III: CC1(C)CC(=O)c2c([nH]c(-c3ccncc3)c2Nc2ccc3ccoc3c2)C1 [Example 26]
IV: O=C(CCCc1ccccc1)Nc1cc(-c2[nH]c3c(c2Nc2ccccc2)C(=O)CCC3)ccn1 [Example 236]
Output the entries ranked by IC50 from maximum down to minimum. Provide the ranking by listing each label in its place in the requested order.
II, I, III, IV
(II: 509 nM, I: 95.6 nM, III: 32.7 nM, IV: 8.26 nM)

P: O=C(O)CNc1cc(-c2[nH]c3c(c2Nc2ccccc2)C(=O)CCC3)ccn1 [Example 369]
Q: CC(=O)O/N=C1\CC(C)(C)Cc2[nH]c(-c3ccncc3)c(Nc3ccccc3)c21 [Example 195]
R: O=C1CCCc2[nH]c(-c3ccnc(NC(=O)C4CC4(F)F)c3)c(Nc3ccccc3)c21 (racemic) [Example 260]
S: NC(=O)CCn1c2c(c(Nc3ccccc3)c1-c1ccncc1)C(=O)CCC2 [Example 174]
Task field, ranking: reported IC50, descending order. To answer, write out the labels according to the requested order.
P, S, Q, R

I: O=C1CCCc2[nH]c(-c3ccnc(NC(=O)C4CC4)c3)c(Nc3ccccc3)c21 [Example 48]
II: CC1(C)C/C(=N\O)c2c([nH]c(-c3ccncc3)c2Nc2ccccc2)C1 [Example 194]
III: O=C1CCCc2[nH]c(-c3c(F)cncc3F)c(Nc3cccc(F)c3)c21 [Example 136]
IV: COCCOc1cnccc1-c1[nH]c2c(c1Nc1ccccc1)C(=O)CC(C)(C)C2 [Example 410]
Hi! Can you put these in order of IC50, lowest number first? Please respond with the labels ordered as the question requires.
IV, I, II, III
